# STUDY SYSTEM: T1, IL-11 (Cat. 12225-HNCE, Sino Biological Inc.) (UniProt P20809 22-199, limits assumed)
# T1 sequence (looked up): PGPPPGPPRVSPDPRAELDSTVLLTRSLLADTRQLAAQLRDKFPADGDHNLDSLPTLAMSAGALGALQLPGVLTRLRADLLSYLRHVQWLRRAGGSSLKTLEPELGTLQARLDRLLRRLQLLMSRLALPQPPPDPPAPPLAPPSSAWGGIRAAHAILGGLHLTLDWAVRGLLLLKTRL
# RUN DESCRIPTION: cell-based or functional assay
EXPERIMENTAL ENDPOINT: Blocking activity (IC50), STAT3-luc reporter (µg/mL)
Give the value in µg/mL but do not write µg/mL after it.

Previously resolved entries follow.
hz8C8-VHm1-m2 + hz8C8-VLm7 (antibody, human IgG1, kappa, V domains shown, human IgG1 constant regions) VH: EVQLVESGGGLVQPGGSLRLSCAASGFTFSSFGMHWVRQAPGKGLEWVASITPGSNTIYYADTVKGRFTISRDNAKNSLYLQMNSLRAEDTAVYYCAREYYSYDEGFAYWGQGTLVTVSS VL: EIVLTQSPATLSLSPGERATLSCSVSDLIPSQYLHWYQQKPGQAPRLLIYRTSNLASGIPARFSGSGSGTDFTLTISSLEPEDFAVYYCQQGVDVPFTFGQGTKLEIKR | 0.052
hz8C8-VHm1 + hz8C8-VLm7-m4 (antibody, human IgG1, kappa, V domains shown, human IgG1 constant regions) VH: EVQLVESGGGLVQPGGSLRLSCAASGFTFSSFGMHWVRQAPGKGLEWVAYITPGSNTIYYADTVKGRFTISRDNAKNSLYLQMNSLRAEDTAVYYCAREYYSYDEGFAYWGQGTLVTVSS VL: EIVLTQSPATLSLSPGERATLSCSVSDLIPSQYLHWYQQKPGQAPRLLIYRTSNRASGIPARFSGSGSGTDFTLTISSLEPEDFAVYYCQQGVDVPFTFGQGTKLEIKR | 0.021
hz18A10-VHm7 + hz18A10-VLm19 (antibody, V domains shown, Constant regions not restated for this antibody) VH: EVQLVQSGAEVKKPGASVKVSCKASGYTFTTYDIDWVRQAPGQGLEWMGTIYPGNGDTSYNQKFKGRVTMTRDTSTSTVYMELSSLRSEDTAVYYCARGDLYALDYWGQGTLVTVSS VL: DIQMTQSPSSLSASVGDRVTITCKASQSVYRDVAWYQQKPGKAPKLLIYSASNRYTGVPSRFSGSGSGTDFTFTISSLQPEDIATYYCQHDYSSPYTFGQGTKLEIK | 1.22
hz18A10-VHm9 + hz18A10-VLm19 (antibody, V domains shown, Constant regions not restated for this antibody) VH: EVQLVQSGAEVKKPGASVKVSCKASGYTFTTYDMSWVRQAPGQGLEWMGTIYPGNGDTSYNQKFKGRVTMTRDTSTSTVYMELSSLRSEDTAVYYCARGDLYALDYWGQGTLVTVSS VL: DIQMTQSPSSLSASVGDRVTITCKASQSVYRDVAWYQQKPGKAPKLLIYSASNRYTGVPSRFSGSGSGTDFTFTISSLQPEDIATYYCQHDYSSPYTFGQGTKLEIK | 0.99

Proceed to the following item.
Reported Blocking activity (IC50), STAT3-luc reporter of hz18A10-VHm15 + hz18A10-VLm19 (antibody, V domains shown, Constant regions not restated for this antibody) VH: EVQLVQSGAEVKKPGASVKVSCKASGYTFTHYSMDWVRQAPGQGLEWMGTIYPGNGDTSYNQKFKGRVTMTRDTSTSTVYMELSSLRSEDTAVYYCARGDLYALDYWGQGTLVTVSS VL: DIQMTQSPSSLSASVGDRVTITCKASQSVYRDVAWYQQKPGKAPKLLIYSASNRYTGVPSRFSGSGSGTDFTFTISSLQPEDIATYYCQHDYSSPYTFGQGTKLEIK : 0.511
